Test system: A498 renal
Test: NCI tumour cell line growth inhibition, 48 h; in the data active = GI50 below about 0.43 µM; inactive = the rest
Classes to choose from: true (1) = active, false (0) = inactive

Study these solved cases before continuing.
In [3]: df
Out[3]:
                                   molecule  class_assignment
0  COc1cc(Nc2ccnc(NCCNc3ccnc4cc(Cl)ccc34)n2)cc(OC)c1          true (1)
1  CCC[CH2][Sn]1([CH2]CCC)[O]CC(CN2CCCCC2)[O]1 (centres undefined)          true (1)
2  O=C(C[n+]1cccc2cc(Cl)ccc21)c1ccc2c(c1)CCCC2         false (0)

Note: attention shifts to another entry.
Query: Per the assay record, what outcome was assigned to CCCC[C@H](NC(=O)[C@H]1CCCCN1C)C(=O)N(C)[C@H](C[C@@H](OC(C)=O)c1nc(C(=O)N[C@@H](Cc2ccccc2)C[C@H](C)C(=O)OCC)cs1)C(C)C ?
Response: true (1)

Taken from PubChem BioAssay (NCI).
